B1: TRIM63 (parent)
chain: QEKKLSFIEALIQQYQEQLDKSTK

# Variants of: B1
# testProtocol: protein stability index of a GFP-peptide fusion (GPS, HEK-293T) (PSI 1-6); higher = more stable;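 further: lentivirally expressed fusions sorted by FACS into six bins by GFP to DsRed ratio, PSI derived from sequencing read proportions per bin multiplied by bin number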
# assayContext: c terminus: a fixed tail appended
# protein stability index per record follows
Number only, please.

// below: answered variants
>  <mutationId>
D20L

>  <experimentalEndpoint>
protein stability index

>  <readoutValue>
1.72

$$$$
>  <mutationId>
K3A

>  <experimentalEndpoint>
protein stability index

>  <readoutValue>
2.67

$$$$
>  <mutationId>
S6T

>  <experimentalEndpoint>
protein stability index

>  <readoutValue>
2.54

$$$$
>  <mutationId>
Q16Y

>  <experimentalEndpoint>
protein stability index

>  <readoutValue>
2.32

$$$$
>  <mutationId>
Q1H

>  <experimentalEndpoint>
protein stability index

>  <readoutValue>
2.28

$$$$

protein stability index measured on K4D = 3.48

protein stability index measured on I8A = 3.83

protein stability index measured on K3W = 1.57

protein stability index measured on D20Q = 1.92

protein stability index measured on I12F = 3.18

protein stability index measured on E2S = 1.87

protein stability index measured on Q16H = 2.57

protein stability index measured on S6F = 2.32
